- System: NOMO1
- procedure_details: cell viability relative to DMSO control; higher = less cytotoxic
- measurement_parameters: RPMI 5 mM glucose + 10% FBS; 48 h; 46.1 µM
Provide the reported cell viability of each item.
# value in %; strip the unit string

Task item: Name the recorded cell viability of the compound listed here: Cl.Cl.Cl.O[C@@H](COc1cccc2ncccc12)CN1CCN([C@@H]2c3ccccc3[C@@H]3[C@H](c4ccccc42)C3(F)F)CC1
Reply: 74.2

Task item: Name the recorded cell viability of the compound listed here: c1cncc(CN2CCC(n3ncc4c(N5CCOCC5)nc(-c5ccc6[nH]ccc6c5)nc43)CC2)c1
Reply: 15.7

Task item: Name the recorded cell viability of the compound listed here: CC/C(=C(/c1ccc(O)cc1)c1ccc(OCCNC)cc1)c1ccccc1
Reply: 45.8

Task item: Name the recorded cell viability of the compound listed here: CN(c1ncccc1CNc1nc(Nc2ccc3c(c2)CC(=O)N3)ncc1C(F)(F)F)[S+](C)(=O)[O-]
Reply: 18.7

Task item: Name the recorded cell viability of the compound listed here: O=NN(CCCl)C(=O)NCCCl
Reply: 101

Task item: Name the recorded cell viability of the compound listed here: CC1(C)O[C@@H]2C[C@H]3[C@@H]4CCC5=CC(=O)C=C[C@]5(C)[C@@]4(F)[C@@H](O)C[C@]3(C)[C@]2(C(=O)CO)O1
Reply: 18.1

Task item: Name the recorded cell viability of the compound listed here: CC(C)n1nc(-c2cc3cc(O)ccc3[nH]2)c2c(N)ncnc21
Reply: 23

Task item: Name the recorded cell viability of the compound listed here: C[C@H]1[C@H](NC(=O)/C(=N/OC(C)(C)C(=O)O)c2csc(N)n2)C(=O)N1[S+](=O)([O-])O
Reply: 103

Task item: Name the recorded cell viability of the compound listed here: CN(C)CCOc1cc(-c2cn[nH]c2)ccc1NC(=O)C1COc2ccccc2O1 (stereo not drawn)
Reply: 64.3

Task item: Name the recorded cell viability of the compound listed here: CC(NC1=CC=CC=C1)C\2=C\C(=C/N3C(=O)\C=C(/N=C23)N4CCOCC4)C (stereo not drawn)
Reply: 108

Task item: Name the recorded cell viability of the compound listed here: CN(CC#C)C/C1=C/C2=CC=CC=C2OC3=CC=CC=C13
Reply: 75.5

Task item: Name the recorded cell viability of the compound listed here: Cn1c(=O)c2c(ncn2C)n(C)c1=O.O=C(O)CC(O)(CC(=O)O)C(=O)O
Reply: 93.8

Task item: Name the recorded cell viability of the compound listed here: COC1CCC(CC1)N(C(=O)C2CCC(C)CC2)C3=C(SC(=C3)\C4=C\CCCC4)C(O)=O (stereo not drawn)
Reply: 96
